experimental_target: Cruzain (Trypanosoma cruzi)
procedure_text: Cysteine protease inhibition, progress curve method, cruzain
Format: biochemical
conditions: 4 uM Ac-Lys-Glu-Lys-Leu-Arg-AMC, 100 mM Na acetate pH 5.5, 5 mM cysteine; read-out: Cruzain Ki
pKi: −log10 of the molar value.
Outcome label depends on pKi relative to 8: at/above gives Condition met, below gives Condition not met.

# count of solved cases: 2
CC(C)C[C@H](NC(=O)c1cc2ccccc2o1)C(=O)N[C@H]1CCCN(S(=O)(=O)c2cn(C)cn2)CC1=O	Condition met
CCCC[C@H](NC(=O)c1cc2ccccc2o1)C(=O)NC1CCCN(S(=O)(=O)c2ccccn2)CC1=O (stereo partly shown)	Condition not met

Next compound, please.
Prompt: Hi team, for "Cc1c(C(=O)N[C@@H](CC(C)C)C(=O)N[C@H]2C[C@H](C)CN(S(=O)(=O)c3ccccn3)CC2=O)oc2ccccc12" , is the recorded pKi at or above 8?
Response: Condition met

* * *

experimental_target: Cruzain (Trypanosoma cruzi, UniProt P25779)
Sequence (P25779 123-337): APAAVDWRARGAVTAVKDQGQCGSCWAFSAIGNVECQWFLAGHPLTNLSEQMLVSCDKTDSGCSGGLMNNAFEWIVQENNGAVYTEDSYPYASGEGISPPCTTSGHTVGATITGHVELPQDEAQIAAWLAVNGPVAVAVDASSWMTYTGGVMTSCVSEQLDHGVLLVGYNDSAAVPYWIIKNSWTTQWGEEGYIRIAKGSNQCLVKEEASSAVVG
procedure_text: Cysteine protease inhibition, progress curve method, cruzain
Format: biochemical
conditions: 4 uM Ac-Lys-Glu-Lys-Leu-Arg-AMC, 100 mM Na acetate pH 5.5, 5 mM cysteine; read-out: Cruzain Ki
Record form. Attribute: pKi. Fill in for each entry.
Answers are plain numbers, as −log10 of the molar value.

The cases that follow already have their pKi on record.
COc1ccc2oc(C(=O)N[C@H](CC(C)C)C(=O)N[C@@H]3CCCN(S(=O)(=O)c4ccccn4)CC3=O)cc2c1 (stereo in doubt) [Example 33]	7.85
CC(C)C[C@@H](NC(=O)c1cc2cc(OCC[N+]3([O-])CCOCC3)ccc2o1)C(=O)N[C@@H]1CCCN(S(=O)(=O)c2ccccn2)CC1=O [Example 43]	8.44
CC(C)C[C@H](NC(=O)c1cc2ccccc2s1)C(=O)N[C@@H]1CCCN(S(=O)(=O)c2ccc(F)cc2)CC1=O [Example 108]	7.70

Hey, quick one: what's pKi for each of these?
1. Cc1oc(-c2ccccc2)nc1C(=O)N[C@H](CC(C)C)C(=O)NC1CCCN(S(=O)(=O)c2cccc[n+]2[O-])CC1=O (stereo partly shown) [Example 117]
2. CC(C)C[C@@H](NC(=O)c1ccc2ccccc2n1)C(=O)N[C@@H]1CCCN(S(=O)(=O)c2ccccn2)CC1=O (stereo in doubt) [Example 24]
3. Cc1cccnc1S(=O)(=O)N1CCC[C@@H](NC(=O)[C@@H](CC(C)C)NC(=O)c2cc3sccc3s2)C(=O)C1 [Example 160]
4. COc1ccc2oc(C(=O)N[C@@H](CC(C)C)C(=O)N[C@H]3CCCN(S(=O)(=O)c4nccs4)CC3=O)cc2c1 [Example 124]

Response:
7.85
7.64
8.13
8.70

* * *

Record form. Attribute: log10(Ki). Fill in for each entry.
experimental_target: UniProtKB P25779
procedure_text: Cysteine protease inhibition, progress curve method, cruzain
Assay type: biochemical
conditions: 4 uM Ac-Lys-Glu-Lys-Leu-Arg-AMC, 100 mM Na acetate pH 5.5, 5 mM cysteine; read-out: Cruzain Ki
Heads up: the numbers are on a log10 scale; they represent Ki in nM.

CC(C)C[C@H](NC(=O)c1cc2sccc2s1)C(=O)N[C@H]1CCCN(C(=O)Nc2ccccc2F)CC1=O	0.73
CC(C)C[C@@H](NC(=O)c1cc2ccccc2o1)C(=O)N[C@@H]1CCCN(S(=O)(=O)c2cccc[n+]2[O-])CC1=O [Example 45]	0.61
CC(C)C[C@@H](NC(=O)c1cc2sccc2s1)C(=O)N[C@@H]1CCCN(S(=O)(=O)c2ccccn2)CC1=O (single isomer, unassigned)	0.72

Hey, quick one: what's log10(Ki) for each of these?
1. CC(C)C[C@@H](NC(=O)c1cc(Br)c(Br)s1)C(=O)N[C@@H]1CCCN(S(=O)(=O)c2cccc[n+]2[O-])CC1=O
2. CC(C)C[C@@H](NC(=O)c1cc2cc(F)c(F)cc2o1)C(=O)N[C@H]1CCCN(S(=O)(=O)c2cccc[n+]2[O-])CC1=O

Response:
1.60
1.11

Hey, quick one: what's log10(Ki) for each of these?
1. CC(C)C[C@@H](NC(=O)c1ccc2[nH]ccc2c1)C(=O)N[C@@H]1CCCN(S(=O)(=O)c2cccc[n+]2[O-])CC1=O
2. CC(C)C[C@@H](NC(=O)c1cc2cc(OCCN3CCCCC3)ccc2o1)C(=O)NC1CCCN(S(=O)(=O)c2ccccc2)CC1=O (single isomer, unassigned)
3. CC(C)C[C@H](NC(=O)c1cc2ccccc2s1)C(=O)N[C@H]1CCCN(S(=O)(=O)c2nccs2)CC1=O
4. COc1ccc2oc(C(=O)N[C@@H](CC(C)C)C(=O)N[C@H]3CCCN(C(=O)Nc4ccccc4F)CC3=O)cc2c1

Response:
0.72
1.83
0.45
0.48
